- Tested on: U2OS
- procedure-text: Multiplex assay against U2OS
- Assay type: toxicity, cell-based
- particulars: human, 12 h, 1 µM, compound concentration 1 uM, replicate 1
measurement-kind: Population Hoechst High Intensity Objects (%)
Answers are plain numbers, in %.

// solved cases for Population Hoechst High Intensity Objects (%) follow
# mol, measurement-units, result-value
data = [
    ("NCCc1cn(S(=O)(=O)c2c(Cl)nc3sccn23)c2ccccc12.O=C(O)C(=O)O", "%", 1),
    ("Cc1c(CC(=O)O)c2cccnc2n1Cc1ccc(S(C)(=O)=O)cc1C(F)(F)F", "%", 1),
    ("N#Cc1cc(F)cc(-c2nc(-c3ccc(F)cn3)no2)c1", "%", 1),
]

Fill in Population Hoechst High Intensity Objects (%) for each of the 2 compounds listed.
1. CN[C@@H](C)C(=O)N[C@H](C(=O)N1CCC[C@H]1C(=O)Nc1snnc1-c1ccccc1)C1CCCCC1
2. CC(/C=C1\SC(=S)N(CCCC(=O)Nc2ccc(C(=O)O)c(O)c2)C1=O)=C\c1ccccc1

Solution:
[5, 3]

Fill in Population Hoechst High Intensity Objects (%) for each of the 2 compounds listed.
1. CCCCC(=O)N(Cc1ccc(-c2ccccc2-c2nnn[nH]2)cc1)[C@H](C(=O)O)C(C)C
2. CC[C@@H](C)Nc1nc(C)nc2c(-c3ccc(OC)nc3C)c(C)nn12

Solution:
1
3

Fill in Population Hoechst High Intensity Objects (%) for each of the 3 compounds listed.
1. CCCOc1ccc2[nH]cc(C3=CCNCC3)c2n1.Cl
2. Cc1cnc(-c2cc(N3CCN(C(=O)CCS(C)(=O)=O)CC3)ncc2Cl)c(C)c1
3. C[C@H](N)COC(=O)[C@@H](CCCCN)NC(=O)Cc1c(-c2ccc3ccccc3c2)[nH]c2c1ccc1ccccc12

Solution:
2
2
3

###

- Tested on: HEK-293T
- procedure-text: Multiplex assay against HEK293T
- Format: toxicity, cell-based
- particulars: human, 12 h, 10 µM, compound concentration 10 uM, replicate 1
Rule: Population Hoechst High Intensity Objects (%) under 7% gives 0 (no), otherwise 1 (yes).

Look over these answered cases.
# compound, classification
records = [
    ("N#Cc1cc(F)cc(-c2nc(-c3ccc(F)cn3)no2)c1", "0 (no)"),
    ("CCCCC1=NC2(CCCC2)C(=O)N1Cc1ccc(-c2ccccc2-c2nnn[nH]2)cc1", "0 (no)"),
    ("Cc1c(CC(=O)O)c2cccnc2n1Cc1ccc(S(C)(=O)=O)cc1C(F)(F)F", "0 (no)"),
    ("CC[C@@H](C)Nc1nc(C)nc2c(-c3ccc(OC)nc3C)c(C)nn12", "1 (yes)"),
    ("Cl.NCCc1ccc(O)c(O)c1 [DOPAMINE HYDROCHLORIDE]", "0 (no)"),
]

Next up:
Problem: Given the entry COC[C@@H](c1ccc(C(F)(F)F)cc1)N1CCN(C2(C)CCN(C(=O)c3c(C)ncnc3C)CC2)C[C@@H]1C.O=C(O)/C=C\C(=O)O [VICRIVIROC MALEATE] , answer whether its Population Hoechst High Intensity Objects (%) meets or surpasses 7%.
Solution: 1 (yes)

###

- Tested on: HEK-293T
- procedure-text: Multiplex assay against HEK293T
- Type: toxicity, cell-based
- particulars: human, 12 h, 10 µM, compound concentration 10 uM, replicate 1
Provide the recorded Population Normal (%) for the entries that follow.
Give bare numbers, in %.

// solved cases for Population Normal (%) follow
# molecule, measurement-units, Population Normal (%)
data = [
    ("CCC(=O)N1CCN(c2ccc(-n3c(=O)ccc4cnc5ccc(-c6cnc7ccccc7c6)cc5c43)cc2C(F)(F)F)CC1", "%", 88),
    ("CCCCC(=O)N(Cc1ccc(-c2ccccc2-c2nnn[nH]2)cc1)[C@H](C(=O)O)C(C)C", "%", 94),
    ("Cc1sc2c(c1C)C(c1ccc(Cl)cc1)=N[C@@H](CC(=O)NCCCCCCCCNC(=O)COc1cccc3c1C(=O)N(C1CCC(=O)NC1=O)C3=O)c1nnc(C)n1-2 (some centres undefined)", "%", 85),
]

Pending molecule:
Problem: Param item = CC(C)(C)c1cc(NC(=O)Nc2ccc(-c3cn4c(n3)sc3cc(OCCN5CCOCC5)ccc34)cc2)no1 ; retrieve measured Population Normal (%).
Solution: 76

meta.source: ChEMBL document CHEMBL5058577
